Experiment: small-molecule microarray binders of probe aXIP, primary screen, biochemical, NeuroSMM set, 635/667 nm fluorescence (AID 1119);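 also: probe is the protein aXip251-270 applied at 1 µg/mL to compound-printed slides; binding of probe to printed compounds measured as 667 nm fluorescence plus signal to noise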
Conditions: higher = more signal, called active from +8 up or from −8 down
Would you please tag the item True when its composite Z-score is 0.06 or above, and False when it is below?

>>> group_label("CC(C)[C@H]1NC(=O)[C@@]23C(=O)N[C@@H](Cc4ccccc4)C2[C@H](C)[C@@]2(C)O[C@H]2C3/C=C/C/C=C\\CNC(=O)[C@H](Cc2ccccc2)NC1=O (stereo not given in full)")
"True"
>>> group_label("COC(=O)[C@@]1(Cc2ccccc2CN=[N+]=[N-])N=C(c2ccc(OCCCO)cc2)O[C@H]1c1ccccc1")
"True"
>>> group_label("COC(=O)C(CC#Cc1ccc2c(c1)[C@]1(C(=O)N2)[C@H](c2ccc(O)cc2)N2[C@H](c3ccccc3)[C@H](c3ccccc3)OC(=O)[C@H]2[C@@H]1C(=O)N1CCCCCCC1)C(=O)OC")
"True"
>>> group_label("C=C(/C(=C/C[C@@H](OC(C)=O)c1ccc(CO)o1)c1cc(C(=O)OC)ccc1OC)C(C)C")
"False"
>>> group_label("C=C(/C(=C/C[C@H](OC(=O)c1ccncc1)c1ccccc1OCCO)c1cnc2ccccc2c1)C(C)C")
"True"
>>> group_label("C=C(CCCC)C(=O)CC[C@H](OC(=O)c1ccccc1-c1ccccc1C(=O)O)c1ccccc1OCCO")
"False"
>>> group_label("COC(=O)C1N=C(c2ccc(OCCCO)cc2)N(c2ccccc2)O1 (stereo not given)")
"True"
>>> group_label("CCCNC(=O)[C@@]1(Sc2ccc(C)cc2)CC(=O)N(C(C)C)[C@@H]1c1ccc(CO)cc1I")
"True"
>>> group_label("C=CCC(OC(C)=O)[C@@H]1[C@@H](N(Cc2ccc(-c3ccccc3)cc2)C(=O)Cc2ccc(F)cc2)c2cc(OCCCO)ccc2N1C(=O)Cc1ccc2ccccc2c1 (stereo not given in full)")
"False"
>>> group_label("CN1C(=O)C2C=CC(C(O)c3cc(C(F)(F)F)cc(C(F)(F)F)c3)N(NC(=O)OC(C)(C)C)C2C1=O (stereo not given)")
"True"
>>> group_label("CC(C)C(=C=CC[C@H](O)c1cccc(OCCO)c1)CCO")
"True"
>>> group_label("CN(C)C(=O)[C@@]1(Cc2ccccc2N=[N+]=[N-])N=C(c2ccc(OCCCO)cc2)O[C@H]1c1ccccc1")
"True"
>>> group_label("COc1ccc(C#Cc2ccc3c(c2)[C@]2(C(=O)N3)[C@H](C(=O)Nc3nc4ccccc4s3)[C@H]3C(=O)O[C@H](c4ccccc4)[C@H](c4ccccc4)N3[C@@H]2c2ccccc2OCCO)cc1")
"False"
>>> group_label("CCOC(=O)C[C@H]1[C@H](OC(=O)c2ccc(-c3ccccc3)cc2)[C@@H](NC(=O)CC(C)C)c2cc(OCCCO)ccc2N1C(=O)c1ccccc1")
"False"
